- method: yeast display, Sf9 membrane polyspecificity reagent, FACS + sequencing; frameworks hold sequencing errors
attribute measured: polyreactivity (PSR sort gate)

Below, each entry is followed by its recorded polyreactivity (PSR sort gate) result.
Request: Endpoint output: polyreactivity (PSR sort gate) of QVQLVESGGGLVQAGGSLRLSCAASGSIFYGYAMGWYRQAPGKEREFVASINSGVGSTYYADSVKGRFTISRDNAKNTVYLLMNSLKPEDTAVYYCNKVHRSFTYNDGQTPAYDYWGQRTQVTVSS . Value?
Response: low polyreactivity

Request: Next up: QVQLVESGGGLVQAGGSLRLSCAASGSTFNHYTMGWYIQAPGKERELVAAISSRGGGTYYADSVKGRFTISRDNAKNTVYLQMNSLKPEDTAVYYCAALISSGIRHSRDYWGQGTQVTVSS
Response: high polyreactivity

Request: Next up: QVQLVESGGGLVQAGGSLRLSCAASGRIFLYYAMGWYRQAPGKERELVAAISRRGASTYYADSVKGRFTITRDNAKNNVYLQMHSLKPEDTAVYYCGTVPGKSGDYWGQGTQLTVSS
Response: high polyreactivity

Request: Next up: QVQLVESGGGLVQAGGSLRLSCAASGFIYRYNVMGWYRHAPGKEMEMVAAISTSGGRTYYADSVKGRFTISRDNAKNTVYLQMNSLKPEDSAVYYCNAVKSEVQKVGDGYYWGLGTQVTVSS
Response: high polyreactivity

Request: Next up: QVQLVESGGGLVQSGGSLRLSCAASGSTLSVYVMGWYRQAPGKERELVARIRSGGNTYYADSVKGRFTISRDNAKNTVYLLMNSLKPEDTAVYYCNADPSTGWYKYDYWGQGTQVTVSS
Response: high polyreactivity

Request: Next up: QVQLVESVGGLVQAGGSLRLSCAASGSTFVRYTMGWYRQAPGKERALVAAISWNGGRTYYADSVKGRFTISRDNTKNTVYLQMNSLKPEDTAVYYCNAVRLVYTGNSDYGYWGQGTQVTVSS
Response: high polyreactivity

Request: Next up: QVQLVESGGGLVQAGGSLRLSCAASGFTFYKNTMGWYRQAPGKERELVAAISSSGSSTYYADSVKGRFTISRDNAKNTVYLQMNSLKPEDTAVYYCAAVYRSWTSYNGRNYWGQGTQVTVSS
Response: high polyreactivity

Request: Next up: QVQLVESGGGLVQAGGSLRLSCAASGRIFNGNAMGWYRQAPGKERELVAAISVSGGSTYYADSVKGRFTISRDNAKNTVYLQMNSLKPEDTAVYYCAARTSSYSFPYAYNYWGQGTQVTVSS
Response: high polyreactivity

Continuing:
Request: Endpoint output: polyreactivity (PSR sort gate) of QVQLVESGGGLVQAGGSLRLSCAASGFIFGHNAMGWYRQAPGKERELVADITWSGGSTYYADSVKGRFTISRDNAKNTVYLQMNSLKPEDTAVYYCNARGRASATGRRGRPDPFGYWGQGTQVTVSS . Value?
Response: high polyreactivity

Request: Next up: QVQLVESGGGLVQAGGSLRLSCAASGRIFKTNAMGWYRQAPGKERELVAGITSGGGTNYADSVKGRFTISRDNAKNTVYLQMNSLKPEDTAVYYCAKDRNFRHIKYSWGGYPYTMDYWGQGTQVTVSS
Response: low polyreactivity

Request: Next up: QVQLVESGGGLVQAGGSLRLSCAASGLTFSGYVMGWYRQAPGKERELVAAISSSGGRTYYADSVKGRFTISRDNAKNTVYLQMNSLKPEDTAVYYCAARNKYGGYPYGYDYWGQGTQVTVSS
Response: high polyreactivity

Request: Next up: QVQLVESGGGLVQAGGSLRLSCAASGSIFSDYAMGWYRQAPGKERELVAGISSGGGTTYADSVKGRFTISRDNAKNTVYLQMNSLIPEDTAVYYCNKQDQPVGRSGYPYGYDYWGQGTQVTVSS
Response: low polyreactivity

Request: Next up: QVQLVESGGGLVQAGGSLRLSCAASGFIFAYYAMGWYRQAPGKERELVAAISKRGGSTYYADSVKGRFTISRDNAKNTVYLQMNSLKPEDTAVYYCAADGHGGYGYWGQGTQVTVSS
Response: high polyreactivity

Request: Next up: QDQLVESGGGLVQAGGSLRLSCAASGSMFDYYAMGWYRQAPGKERELVAAISGSGSRTYYADSVKGRFTISRVTAKNTVYIQMNRLKPEDTAFYYCAAESVVYDIVGYEYWYDYYWGLGTQVTVSS
Response: high polyreactivity

Request: Next up: QVQLVESGGGLVQAGGSLRFSCAASGSTFYLYDMGWYRQAPGQERELVAVISWSGGSTSYADSVKGRFTISRDNAKNTIYLQMYSLKPEDTAVYYCTTDFYHWGQGTQVTVSS
Response: low polyreactivity

Request: Next up: QVQLVESGGGLVQAGGSLRLSCAASGSILYRYTMGWYRQAPGKERELVAAITKRGGRTYYADSVKGRFTISRDNAKNTVYLQMNSLKPEDTAVYYCAAKYYTGGSFEMYYWGQGTQVTVSS
Response: high polyreactivity

Request: Next up: QVQLVESGGGLVQAGGSLRLSCAASGSIYYAMGWYRQAPGKESEFVAAINSGGSTYYADSVKGRFTISRDNAKNTVYLQMNSLKPEDTAVYYCAKPTYRFYWGDFDYWGQGTQVTVSS
Response: low polyreactivity
